Data origin, for the record: the supplement of paper PMC9694430

Please go through the items and note down their thermal shift delta Tm.
# System: LOC_OS01G21960-cb002
# experimental.details: thermal shift delta Tm vs DMSO control; higher = stronger stabilization (binding);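 note: purified Escherichia coli-expressed rice kinase domain construct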
# run.parameters: 12.5 µM; protein concentration 2 µM
Counter-ions that a name gives are not always drawn.
Numbers only, in °C.

Some entries whose results are on file:
C[C@H](NC(=O)c1c(N)nn2cccnc12)c1cc2cccc(C#Cc3cnn(C)c3)c2c(=O)n1-c1ccccc1 :: 0.17
Cc1cnc(NC(=O)Nc2cc(Br)c(C)cc2OC[C@@H]2CNCCO2)cn1 :: 0.58
Cc1c(CN2CCN(C(=O)[C@H](C)O)CC2)sc2c(N3CCOCC3)nc(-c3cnc(N)nc3)nc12 [Apitolisib (GDC-0980, RG7422)] :: 0.49

Please report thermal shift delta Tm for every entry that follows.
1. Clc1ccc(C2(c3ccc(-c4cn[nH]c4)cc3)CCNCC2)cc1
2. C=CC(=O)Nc1cccc(Nc2nc(Nc3ccc(N4CCN(C(C)=O)CC4)cc3OC)ncc2C(F)(F)F)c1 [Rociletinib (CO-1686, AVL-301)]
3. Nc1nc(N)c(N=O)c(OCC2CCCCC2)n1
4. Cc1ccc(NC(=O)c2ccc(CN3CCN(C)CC3)cc2)cc1Nc1nccc(-c2cccnc2)n1 [Imatinib Mesylate (STI571)]
5. C=CC(=O)Nc1cc(Nc2nccc(-c3c[nH]c4ccccc34)n2)c(OC)cc1N(C)CCN(C)C
6. Fc1ccc2[nH]ccc2c1-c1nc(N2CCOCC2)c2sc(CN3CCN(CC4CC4)CC3)cc2n1

1: 0.46; 2: 0.5; 3: 1.67; 4: 0.23; 5: 0.6; 6: -0.01

----------
Exercise: for every item that follows, state its recorded thermal shift delta Tm.
# System: LOC_OS03G04050-cb001
# experimental.details: thermal shift delta Tm vs DMSO control; higher = stronger stabilization (binding)
# run.parameters: 12.5 µM; protein concentration 2 µM
Give bare numbers, in °C.

Here are 3 compounds together with their reported answers.
O=C(NCc1cccc(O)c1)Nc1nc(-c2ccncc2)cs1 :: 1.15
CC(C)S(=O)(=O)c1ccc2nccc(Nc3ccc4scnc4c3)c2c1 :: 0.51
O=C(Nc1nc2cccc(-c3ccc(CN4CCS(=O)(=O)CC4)cc3)n2n1)C1CC1 :: 0.6

Provide each entry's thermal shift delta Tm from the list below.
1. CCS(=O)(=O)N1CCN(c2ccc(Nc3ncc(C(N)=O)c(NC4CC4)n3)cc2)CC1
2. C[C@]1(O)C[C@@H](c2nc(-c3ccc4ccc(-c5ccccc5)nc4c3)c3c(N)nccn32)C1
3. COc1cc(Nc2c(C#N)cnc3cc(OCCCN4CCN(C)CC4)c(OC)cc23)c(Cl)cc1Cl [Bosutinib (SKI-606)]
4. C[C@@H]1COCCN1c1cc(C2([S@](C)(=N)=O)CC2)nc(-c2cc[nH]c3nccc2-3)n1
5. CCCCOc1c(C(=O)c2c(F)cc(C)cc2F)c[nH]c2nncc1-2
6. COc1cc2c(Oc3ccc4[nH]c(C)cc4c3F)ncnc2cc1OCCCN1CCCC1

1. 0.19
2. 0.57
3. 0.26
4. 0.32
5. 0.23
6. 0.25

----------
# Tested on: LOC_OS01G13800-cb001
# experimental.details: thermal shift delta Tm vs DMSO control; higher = stronger stabilization (binding)
# run.parameters: 12.5 µM; protein concentration 2 µM
What thermal shift delta Tm was measured for each of the following?
Answers are plain numbers, in °C.

Solved cases (8 shown):
Cc1ccccc1-n1c(Cn2nc(-c3cccc(O)c3)c3c(N)ncnc32)nc2cccc(C)c2c1=O :: -0.2
NC(=O)c1ccc2nc(-c3ccc(Oc4ccc(Cl)cc4)cc3)[nH]c2c1 [Chk2 Inhibitor II (BML-277)] :: -0.46
Nc1nc(Nc2ccc(S(N)(=O)=O)cc2)nn1C(=O)c1c(F)cccc1F :: 0.59
Cc1nc(Nc2ncc(C(=O)Nc3c(C)cccc3Cl)s2)cc(N2CCN(CCO)CC2)n1 [Dasatinib] :: 0.61
Oc1cccc(-c2nc(N3CCOCC3)c3oc4ncccc4c3n2)c1 :: 0.75
Cc1ccc(-n2nc(C(C)(C)C)cc2NC(=O)Nc2ccc(OCCN3CCOCC3)c3ccccc23)cc1 [Doramapimod (BIRB 796)] :: 0.47
CN1CCN(c2nc(C3=C(c4c[nH]c5ccccc45)C(=O)NC3=O)c3ccccc3n2)CC1 [Sotrastaurin] :: 0.15
N#Cc1cnc(Nc2cc(NC[C@H]3CNCCO3)c(C(F)(F)F)cn2)cn1 :: -0.18

Request the reported thermal shift delta Tm associated with Cn1sc(=O)n(Cc2ccccc2)c1=O
0.24
